These measurements were taken from ChEMBL document CHEMBL4138313.

- testedSystem: UniProt:Q9H2K2
- Sequence (Q9H2K2 whole entry): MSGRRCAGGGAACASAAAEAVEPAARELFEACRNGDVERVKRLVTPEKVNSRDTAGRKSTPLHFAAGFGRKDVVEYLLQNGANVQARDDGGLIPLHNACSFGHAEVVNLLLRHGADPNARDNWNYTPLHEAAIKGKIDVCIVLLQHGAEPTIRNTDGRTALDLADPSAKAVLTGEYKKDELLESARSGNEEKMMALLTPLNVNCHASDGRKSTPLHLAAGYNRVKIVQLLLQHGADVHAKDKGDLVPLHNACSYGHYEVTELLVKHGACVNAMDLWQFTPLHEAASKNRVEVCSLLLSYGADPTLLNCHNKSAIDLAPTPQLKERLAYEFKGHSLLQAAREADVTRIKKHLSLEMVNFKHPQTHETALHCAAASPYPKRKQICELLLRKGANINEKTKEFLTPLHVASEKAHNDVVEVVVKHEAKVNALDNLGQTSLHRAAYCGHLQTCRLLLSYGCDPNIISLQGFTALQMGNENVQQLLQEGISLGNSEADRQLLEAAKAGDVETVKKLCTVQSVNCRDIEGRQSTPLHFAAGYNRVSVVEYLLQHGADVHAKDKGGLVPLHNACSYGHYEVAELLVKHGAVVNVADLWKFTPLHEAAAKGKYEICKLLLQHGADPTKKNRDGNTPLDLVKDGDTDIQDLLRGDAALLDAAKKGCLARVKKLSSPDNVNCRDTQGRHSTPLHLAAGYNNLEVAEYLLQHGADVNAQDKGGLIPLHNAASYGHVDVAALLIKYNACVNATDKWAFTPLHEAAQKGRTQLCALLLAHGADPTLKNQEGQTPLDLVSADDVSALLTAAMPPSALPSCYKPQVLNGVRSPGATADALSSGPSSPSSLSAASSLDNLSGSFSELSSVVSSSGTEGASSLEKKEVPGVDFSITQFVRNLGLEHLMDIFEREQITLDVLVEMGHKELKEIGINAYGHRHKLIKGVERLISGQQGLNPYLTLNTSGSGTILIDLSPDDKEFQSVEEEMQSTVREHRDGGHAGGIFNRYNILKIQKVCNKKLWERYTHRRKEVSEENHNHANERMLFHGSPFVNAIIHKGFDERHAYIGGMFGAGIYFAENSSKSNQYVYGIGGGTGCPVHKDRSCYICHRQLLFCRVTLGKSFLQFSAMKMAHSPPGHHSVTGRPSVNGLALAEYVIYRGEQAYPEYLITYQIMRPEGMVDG
This listing pairs molecules with measured IC50.
measuredAttribute: IC50 (nM)

{"columns": ["molecule", "testedSystem", "measuredAttribute", "measurementUnits", "endpointValue"],
 "data": [
  ["CC(C)(C)OC(=O)N1CCC2(CC1)CCN(C(=O)c1cc(Cc3n[nH]c(=O)c4ccccc34)ccc1F)C2", "UniProt:Q9H2K2", "IC50", "nM", 953],
  ["CC(C)(C)OC(=O)N1CCC2(CCN(C(=O)c3cc(Cc4n[nH]c(=O)c5ccccc45)ccc3F)C2)C1 (stereo not drawn)", "UniProt:Q9H2K2", "IC50", "nM", 576],
  ["CC(C)(C)OC(=O)N1CCC2(CC1)CCN(C(=O)c1cc(Cc3n[nH]c(=O)c4ccccc34)ccc1F)CC2", "UniProt:Q9H2K2", "IC50", "nM", 2800]
]}

----------
- testedSystem: Poly [ADP-ribose] polymerase tankyrase-1 (Homo sapiens)
- Sequence (O95271 whole entry, the tested form may be a part): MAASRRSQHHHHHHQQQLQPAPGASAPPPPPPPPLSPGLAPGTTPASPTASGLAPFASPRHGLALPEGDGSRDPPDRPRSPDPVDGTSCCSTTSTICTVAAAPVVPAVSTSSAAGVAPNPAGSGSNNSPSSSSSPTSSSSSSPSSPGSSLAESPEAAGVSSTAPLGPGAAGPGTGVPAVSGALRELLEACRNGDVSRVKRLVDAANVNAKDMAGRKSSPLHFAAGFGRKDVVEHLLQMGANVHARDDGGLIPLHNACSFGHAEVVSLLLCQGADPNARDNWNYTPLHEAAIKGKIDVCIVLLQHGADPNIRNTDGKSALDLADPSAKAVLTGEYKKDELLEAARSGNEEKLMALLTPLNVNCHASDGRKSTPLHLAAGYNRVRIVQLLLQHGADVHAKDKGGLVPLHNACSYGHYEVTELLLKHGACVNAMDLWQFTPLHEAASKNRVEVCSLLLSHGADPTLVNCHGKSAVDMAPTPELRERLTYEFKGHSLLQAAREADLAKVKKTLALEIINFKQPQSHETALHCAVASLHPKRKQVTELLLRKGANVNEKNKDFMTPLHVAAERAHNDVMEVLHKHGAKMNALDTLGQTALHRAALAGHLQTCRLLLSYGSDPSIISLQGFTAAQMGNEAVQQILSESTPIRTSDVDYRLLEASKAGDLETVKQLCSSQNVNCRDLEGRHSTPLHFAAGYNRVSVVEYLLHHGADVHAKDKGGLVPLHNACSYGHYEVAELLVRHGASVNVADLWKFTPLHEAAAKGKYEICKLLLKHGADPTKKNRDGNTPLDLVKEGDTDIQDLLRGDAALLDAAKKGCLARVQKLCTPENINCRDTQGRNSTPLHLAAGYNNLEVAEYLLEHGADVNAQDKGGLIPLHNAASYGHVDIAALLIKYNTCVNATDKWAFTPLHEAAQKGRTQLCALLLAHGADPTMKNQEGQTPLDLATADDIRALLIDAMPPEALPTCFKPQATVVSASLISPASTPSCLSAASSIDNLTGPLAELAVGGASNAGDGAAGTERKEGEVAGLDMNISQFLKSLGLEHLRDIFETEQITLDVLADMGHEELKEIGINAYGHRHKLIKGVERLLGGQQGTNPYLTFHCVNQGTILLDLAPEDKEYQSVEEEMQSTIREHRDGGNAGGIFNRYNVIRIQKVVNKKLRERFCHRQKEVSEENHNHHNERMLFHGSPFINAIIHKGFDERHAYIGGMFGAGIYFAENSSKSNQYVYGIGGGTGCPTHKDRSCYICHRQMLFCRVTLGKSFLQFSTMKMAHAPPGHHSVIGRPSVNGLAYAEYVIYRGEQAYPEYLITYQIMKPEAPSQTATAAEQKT
- test: Inhibition of human N-terminal GST-tagged TNKS1 (1001 to 1327 residues) expressed in baculovirus infected sf9 cells using histone as substrate after 1 hr by streptavidin-horseradish peroxidase-based luminescence assay
measuredAttribute: IC50 (µM)

{"columns": ["chemicalStructure", "measuredAttribute", "measurementUnits", "endpointValue"],
 "data": [
  ["CC(C)(C)OC(=O)N1CCC2(CC1)CCN(C(=O)c1cc(Cc3n[nH]c(=O)c4ccccc34)ccc1F)CC2", "IC50", "µM", 5.7]
]}
